# System: U-2932
# protocolDescription: growth inhibition by drug alone (1 - RLU/untreated control) (fraction); higher = stronger inhibition
# conditionContext: 10 nM; time (day): 5; 177Lu-lilotomab satetraxetan 0 ug/ml
measuredAttribute: growth inhibition by drug alone
The answer should be a number; do not append a unit.

[[record]]
compound = "O=C(NCCS(=O)(=O)c1ccc(C(F)(F)F)cn1)c1ccc(Cl)cc1"
assaysystem = "U-2932"
endpointvalue = -0.0367


I am curious: what growth inhibition by drug alone value has been reported for N#CC(c1ccnc(NCCc2cccnc2)n1)c1nc2ccccc2s1 (stereo not given) ?
-0.0395

Need growth inhibition by drug alone, item Cc1[nH]c2ccccc2c1CCNCc1ccc(/C=C/C(=O)NO)cc1
0.353

Entry O=C(NOC[C@H](O)CO)c1ccc(F)c(F)c1Nc1ccc(I)cc1F has what growth inhibition by drug alone?
0.0482

Fill in: growth inhibition by drug alone of Cc1csc(-c2nnc(Nc3ccc(Oc4ncccc4-c4ccnc(N)n4)cc3)c3ccccc23)c1 is ___
0.0489

====

# System: U-2932
# protocolDescription: growth inhibition by drug plus 177Lu-lilotomab satetraxetan (1 - RLU/untreated control) (fraction); higher = stronger inhibition
# conditionContext: 10 nM; time (day): 6; 177Lu-lilotomab satetraxetan 1 ug/ml
Where a name gives a salt, the structure may show the parent alone.
Decision: growth inhibition by drug plus 177Lu-lilotomab satetraxetan >= 0.2 yields Satisfied, all other cases yield Not satisfied.

Record excerpt, results attached:
[[record]]
compound = "Cc1cc(O)c2c(c1)C(=O)c1cccc(O)c1C2=O [Chrysophanic acid (Chrysophanol)]"
assignedlabel = "Not satisfied"

[[record]]
compound = "CC1(CN2CCC(n3c(=O)[nH]c4ccccc43)CC2)OCc2ccccc2-n2cccc21 (stereo unspecified)"
assignedlabel = "Not satisfied"


Does the compound Cc1ccnc(NS(=O)(=O)c2ccc(NC(=O)Nc3ccc(S(=O)(=O)Nc4nccc(C)n4)cc3)cc2)n1 have recorded growth inhibition by drug plus 177Lu-lilotomab satetraxetan that is 0.2 or more?
Not satisfied

Please check the record C#Cc1cccc(Nc2ncnc3cc(OC)c(OCCCCCCC(=O)NO)cc23)c1 and state if its growth inhibition by drug plus 177Lu-lilotomab satetraxetan is at or above 0.2.
Not satisfied

Dear colleague, could you confirm whether O=C1CN2Cc3c(ccc(Cl)c3Cl)N=C2N1 [Anagrelide hydrochloride] has growth inhibition by drug plus 177Lu-lilotomab satetraxetan at or above 0.2?
Satisfied

Quick check, growth inhibition by drug plus 177Lu-lilotomab satetraxetan >= 0.2? Cc1cccc(-c2nn3c(c2-c2ccnc4ccc(C(N)=O)cc24)CCC3)n1
Not satisfied

====

# System: RIVA
# protocolDescription: growth inhibition by drug alone (1 - RLU/untreated control) (fraction); higher = stronger inhibition
# conditionContext: 100 nM; time (day): 4; 177Lu-lilotomab satetraxetan 0 ug/ml
Measured growth inhibition by drug alone, listed per entry for reference.

Here's what some known entries look like.
[[record]]
compound = "Oc1nc(-c2ccc(C(F)(F)F)cc2)nc2c1CSCC2"
assaysystem = "RIVA"
endpointvalue = -0.117

[[record]]
compound = "O=C(c1cc(Cc2n[nH]c(=O)c3ccccc23)ccc1F)N1CCN(C(=O)C2CC2)CC1 [Olaparib (AZD2281)]"
assaysystem = "RIVA"
endpointvalue = -0.239

[[record]]
compound = "CN1C(=O)C(Cc2c[nH]c3ccccc23)NC1=S (centres undefined) [Necrostatin-1]"
assaysystem = "RIVA"
endpointvalue = -0.362

[[record]]
compound = "O=c1[nH]nc(Sc2ncc([N+](=O)[O-])s2)n1-c1ccc2c(c1)OCCO2"
assaysystem = "RIVA"
endpointvalue = -0.0567

[[record]]
compound = "CCCCCCCCc1ccc(CCC(N)(CO)CO)cc1 [Fingolimod (FTY720)]"
assaysystem = "RIVA"
endpointvalue = -0.13

[[record]]
compound = "CC(C)C[C@H](NC(=O)[C@H](Cc1ccccc1)NC(=O)c1cnccn1)B(O)O [Bortezomib (Velcade)]"
assaysystem = "RIVA"
endpointvalue = 0.978

[[record]]
compound = "CCC(CC)CC1(C(=O)Nc2ccccc2SC(=O)C(C)C)CCCCC1"
assaysystem = "RIVA"
endpointvalue = -0.15

[[record]]
compound = "CS(=O)(=O)c1cccc(CNc2nc(Nc3ccc4c(c3)CCC(=O)N4)ncc2C(F)(F)F)c1"
assaysystem = "RIVA"
endpointvalue = -0.126


Here's the next entry for you.
API: value(readout= growth inhibition by drug alone, system= RIVA, query= O=C(NOC[C@H](O)CO)c1ccc(F)c(F)c1Nc1ccc(I)cc1F )
0.122
